From: PubChem BioAssay AID1963425

Test system: 323965-272-R-J2-PDC complex spheroid growth, % test/control
assay_procedure: Anticancer human tumor 323965-272-R-J2-PDC patient-derived pancreatic carcinoma cell line growth inhibition [Asc]
condition_details: second compound 0.00949 µM; first compound 0.316 µM; hits give low values
measured_attribute: viability, T/C

Consider the following illustrative entries.
C=CC(=O)N1CCN(c2nc(=O)n(-c3c(C)ccnc3C(C)C)c3nc(-c4c(O)cccc4F)c(F)cc23)C(C)C1 (stereo not drawn) + CCN1C(C(=O)NC23CCC(C(=O)O)(CC2)CC3)C(c2cccc(Cl)c2F)C2(C(=O)Nc3cc(Cl)ccc32)C12CCCCC2: 60.5%
O=C(c1ccc(F)c(F)c1Nc1ccc(I)cc1F)N1CC(O)([C@@H]2CCCCN2)C1 + CCN1C(C(=O)NC23CCC(C(=O)O)(CC2)CC3)C(c2cccc(Cl)c2F)C2(C(=O)Nc3cc(Cl)ccc32)C12CCCCC2: 32.1%
C#Cc1c(F)ccc2cc(O)cc(-c3ncc4c(N5CC6CCC(C5)N6)nc(OCC56CCCN5CC(F)C6)nc4c3F)c12 (stereo not drawn) + CCN1C(C(=O)NC23CCC(C(=O)O)(CC2)CC3)C(c2cccc(Cl)c2F)C2(C(=O)Nc3cc(Cl)ccc32)C12CCCCC2: 98.2%
O=C(c1cc(Cc2n[nH]c(=O)c3ccccc23)ccc1F)N1CCN(C(=O)C2CC2)CC1 + CCN1C(C(=O)NC23CCC(C(=O)O)(CC2)CC3)C(c2cccc(Cl)c2F)C2(C(=O)Nc3cc(Cl)ccc32)C12CCCCC2: 113%
CCN1CCN(Cc2ccc(Nc3ncc(F)c(-c4cc(F)c5nc(C)n(C(C)C)c5c4)n3)nc2)CC1 + CCN1C(C(=O)NC23CCC(C(=O)O)(CC2)CC3)C(c2cccc(Cl)c2F)C2(C(=O)Nc3cc(Cl)ccc32)C12CCCCC2: 68.7%
COc1c(OCCCN2CCOCC2)ccc2c3n(c(=NC(=O)c4cnc(N)nc4)nc12)CCN3 + CCN1C(C(=O)NC23CCC(C(=O)O)(CC2)CC3)C(c2cccc(Cl)c2F)C2(C(=O)Nc3cc(Cl)ccc32)C12CCCCC2: 34.2%

Incoming: API: value(readout=viability, T/C, system=323965-272-R-J2-PDC complex spheroid growth, % test/control) for record CNC(C)C(=O)NC1CN(S(=O)(=O)c2cccc(S(=O)(=O)N3CCC4CCC(C(=O)NC(c5ccccc5)c5ccccc5)N4C(=O)C(NC(=O)C(C)NC)C3)c2)CCC2CCC(C(=O)NC(c3ccccc3)c3ccccc3)N2C1=O (stereo not drawn) + CCN1C(C(=O)NC23CCC(C(=O)O)(CC2)CC3)C(c2cccc(Cl)c2F)C2(C(=O)Nc3cc(Cl)ccc32)C12CCCCC2
Outgoing: 109%

Incoming: Tell me reported viability, T/C for C=C(F)C(=O)N1CCN(c2nc(OCC3CCCN3C)nc3c2CCN(c2cccc4cccc(Cl)c24)C3)CC1CC#N (stereo not drawn) + CCN1C(C(=O)NC23CCC(C(=O)O)(CC2)CC3)C(c2cccc(Cl)c2F)C2(C(=O)Nc3cc(Cl)ccc32)C12CCCCC2 , tested with 323965-272-R-J2-PDC complex spheroid growth, % test/control.
Outgoing: 61.5%

----------
Test system: 323965-272-R-J2-PDC complex spheroid growth, % test/control
assay_procedure: Anticancer human tumor 323965-272-R-J2-PDC cell line growth inhibition [Asc];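 note: compound exposure lasted 7 days starting three days after spheroid seeding; 100% = DMSO vehicle control wells with viability set relative to vehicle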
condition_details: second compound 0.0949 µM; first compound 0.1 µM; hits give low values
Catalogue of compounds with associated viability, T/C
Write it as a number; the unit % goes unstated.

C#Cc1c(F)ccc2cc(O)cc(-c3ncc4c(N5CC6CCC(C5)N6)nc(OCC56CCCN5CC(F)C6)nc4c3F)c12 (configuration not stated) + CCN1C(C(=O)NC23CCC(C(=O)O)(CC2)CC3)C(c2cccc(Cl)c2F)C2(C(=O)Nc3cc(Cl)ccc32)C12CCCCC2: 108

Turning now to a further record.
Incoming: Need viability, T/C, item CNC(C)C(=O)NC1CN(S(=O)(=O)c2cccc(S(=O)(=O)N3CCC4CCC(C(=O)NC(c5ccccc5)c5ccccc5)N4C(=O)C(NC(=O)C(C)NC)C3)c2)CCC2CCC(C(=O)NC(c3ccccc3)c3ccccc3)N2C1=O (configuration not stated) + CCN1C(C(=O)NC23CCC(C(=O)O)(CC2)CC3)C(c2cccc(Cl)c2F)C2(C(=O)Nc3cc(Cl)ccc32)C12CCCCC2
Outgoing: 95
